# Tested on: rodent lifetime carcinogenesis bioassay, tumor incidence TD50
# testDetails: carcinogenic potency in animals, long-term in vivo studies, CPDB compilation (AID 1745844)
# reportedConditions: mouse; strain B6C3F1; females; in drinking water; site: liver; lesion: several types; types named in the paper; dosed 80 weeks; study length 123 weeks
The source made the active and inactive calls. How the calls were made is not given here.
measuredAttribute: TD50

What the record says about CC(O)CN(C)c1ccc(NN)nn1 (stereo unspecified) : TD50 is 503 mg/kg/day (inactive)

* * *

# Tested on: rodent lifetime carcinogenesis bioassay, tumor incidence TD50
# testDetails: carcinogenic potency in animals, long-term in vivo studies, CPDB compilation (AID 1745844)
# reportedConditions: rat; strain F344/DuCrj; females; in drinking water; site: uterus; lesion: adenoma; dosed 103 weeks; study length 111 weeks
measuredAttribute: TD50

CCN(N=O)C(N)=O on rodent lifetime carcinogenesis bioassay, tumor incidence TD50 gives TD50 = 4.08 mg/kg/day
